Origin of measurements: the supplement of paper PMC10307832

# System: LC-2-ad
# procedureText: relative viability (nuclei count vs DMSO), 5 days (fraction); higher = more cells survive
# experimentalConditions: first compound 1.265 µM
measurementType: relative viability
Please reply with the number alone, leaving off any unit.

{"compound": "COc1cc(N2CCC(C(N)=O)CC2)ccc1Nc1nc(N)c(Cl)c(Nc2ccccc2S(=O)(=O)C(C)C)n1 [HG-5-88-01] + Nc1ncn([C@H]2C[C@H](O)[C@@H](CO)O2)c(=O)n1 [Decitabine] (partner 2 µM)", "relative viability": 0.814}
{"compound": "COc1cc(N2CCC(C(N)=O)CC2)ccc1Nc1nc(N)c(Cl)c(Nc2ccccc2S(=O)(=O)C(C)C)n1 [HG-5-88-01] + CC1(C)CCC(c2ccc(Cl)cc2)=C(CN2CCN(c3ccc(C(=O)NS(=O)(=O)c4ccc(N[C@H](CCN5CCOCC5)CSc5ccccc5)c(S(=O)(=O)C(F)(F)F)c4)cc3)CC2)C1 [Navitoclax] (partner 0.5 µM)", "relative viability": 0.379}
{"compound": "COc1cc(N2CCC(C(N)=O)CC2)ccc1Nc1nc(N)c(Cl)c(Nc2ccccc2S(=O)(=O)C(C)C)n1 [HG-5-88-01] + CS(=O)(=O)N1CCN(Cc2cc3nc(-c4cccc5[nH]ncc45)nc(N4CCOCC4)c3s2)CC1 [Pictilisib] (partner 1 µM)", "relative viability": 0.448}

Consider the additional compound presented here.
Value lookup for relative viability; key = COc1cc(N2CCC(C(N)=O)CC2)ccc1Nc1nc(N)c(Cl)c(Nc2ccccc2S(=O)(=O)C(C)C)n1 [HG-5-88-01] + Cc1nc(NC(=O)N2CCC[C@H]2C(N)=O)sc1-c1ccnc(C(C)(C)C(F)(F)F)c1 [Alpelisib] (partner 2 µM)
0.856

* * *

# System: RERF-LC-KJ
# procedureText: relative viability (nuclei count vs DMSO), 5 days (fraction); higher = more cells survive
# experimentalConditions: first compound 0.1265 µM
measurementType: relative viability
Quick one: just the number, no unit, thanks!

{"molecule": "Clc1ccc(Nc2nnc(Cc3ccncc3)c3ccccc23)cc1 [Vatalanib] + O=C(CCCCCCC(=O)Nc1ccccc1)NO [Vorinostat] (partner 1 µM)", "targetUnderTest": "RERF-LC-KJ", "relative viability": 0.747}
{"molecule": "COc1cc(N2CCC(C(N)=O)CC2)ccc1Nc1nc(N)c(Cl)c(Nc2ccccc2S(=O)(=O)C(C)C)n1 [HG-5-88-01] + C[C@]1(O)C[C@@H](c2nc(-c3ccc4ccc(-c5ccccc5)nc4c3)c3c(N)nccn32)C1 [Linsitinib] (partner 1 µM)", "targetUnderTest": "RERF-LC-KJ", "relative viability": 0.897}
{"molecule": "Clc1ccc(Nc2nnc(Cc3ccncc3)c3ccccc23)cc1 [Vatalanib] + CC(=O)c1c(C)c2cnc(Nc3ccc(N4CCNCC4)cn3)nc2n(C2CCCC2)c1=O [Palbociclib] (partner 0.5 µM)", "targetUnderTest": "RERF-LC-KJ", "relative viability": 1.05}

Lab request: please report relative viability under test system RERF-LC-KJ for Clc1ccc(Nc2nnc(Cc3ccncc3)c3ccccc23)cc1 [Vatalanib] + C[C@@H](Oc1cc(-c2cnn(C3CCNCC3)c2)cnc1N)c1c(Cl)ccc(F)c1Cl [Crizotinib] (partner 1 µM)
0.766

Try C[C@@H]1CN(CC(=O)Nc2ccc3c(c2)Cc2cccc(-c4cc(=O)cc(N5CCOCC5)o4)c2S3)C[C@H](C)O1 + CS(=O)(=O)N1CCN(Cc2cc3nc(-c4cccc5[nH]ncc45)nc(N4CCOCC4)c3s2)CC1 [Pictilisib] (partner 1 µM) next.
0.531

Subsequent entry: COc1cc(N2CCC(C(N)=O)CC2)ccc1Nc1nc(N)c(Cl)c(Nc2ccccc2S(=O)(=O)C(C)C)n1 [HG-5-88-01] + CC(C)C[C@H](NC(=O)[C@H](Cc1ccccc1)NC(=O)c1cnccn1)B(O)O [Bortezomib] (partner 0.002 µM)
1.19

* * *

# Tested on: NCI-H1651
# procedureText: relative viability (nuclei count vs DMSO), 5 days (fraction); higher = more cells survive
# experimentalConditions: first compound 2.53 µM
measurementType: relative viability
// print number alone

These recorded examples may help you get a feel for the data.
{"molecule": "CCCCCCCCCCCC1=C(O)C(=O)C=C(O)C1=O [Embelin] + N=C(N)NC(=N)NCCc1ccccc1 [Phenformin] (partner 250 µM)", "targetUnderTest": "NCI-H1651", "relative viability": 0.361}
{"molecule": "CCCCCCCCCCCC1=C(O)C(=O)C=C(O)C1=O [Embelin] + CS(=O)(=O)N1CCN(Cc2cc3nc(-c4cccc5[nH]ncc45)nc(N4CCOCC4)c3s2)CC1 [Pictilisib] (partner 1 µM)", "targetUnderTest": "NCI-H1651", "relative viability": 0.769}
{"molecule": "CCCCCCCCCCCC1=C(O)C(=O)C=C(O)C1=O [Embelin] + CC(=O)Nc1cccc(-n2c(=O)n(C3CC3)c(=O)c3c(Nc4ccc(I)cc4F)n(C)c(=O)c(C)c32)c1 [Trametinib] (partner 0.02 µM)", "targetUnderTest": "NCI-H1651", "relative viability": 0.824}
{"molecule": "CCCCCCCCCCCC1=C(O)C(=O)C=C(O)C1=O [Embelin] + Cc1nc(NC(=O)N2CCC[C@H]2C(N)=O)sc1-c1ccnc(C(C)(C)C(F)(F)F)c1 [Alpelisib] (partner 2 µM)", "targetUnderTest": "NCI-H1651", "relative viability": 0.945}
{"molecule": "CCCCCCCCCCCC1=C(O)C(=O)C=C(O)C1=O [Embelin] + Nc1nc2[nH]cc(CCc3ccc(C(=O)N[C@@H](CCC(=O)O)C(=O)O)cc3)c2c(=O)[nH]1 [Pemetrexed] (partner 0.2 µM)", "targetUnderTest": "NCI-H1651", "relative viability": 0.656}
{"molecule": "CCCCCCCCCCCC1=C(O)C(=O)C=C(O)C1=O [Embelin] + CCNC(=O)c1noc(-c2cc(C(C)C)c(O)cc2O)c1-c1ccc(CN2CCOCC2)cc1 [Luminespib] (partner 0.01 µM)", "targetUnderTest": "NCI-H1651", "relative viability": 0.977}
{"molecule": "CCCCCCCCCCCC1=C(O)C(=O)C=C(O)C1=O [Embelin] + C[C@@H](Oc1cc(-c2cnn(C3CCNCC3)c2)cnc1N)c1c(Cl)ccc(F)c1Cl [Crizotinib] (partner 1 µM)", "targetUnderTest": "NCI-H1651", "relative viability": 0.988}

Could you share which relative viability value was measured for CCCCCCCCCCCC1=C(O)C(=O)C=C(O)C1=O [Embelin] + O=C(c1cc(Cc2n[nH]c(=O)c3ccccc23)ccc1F)N1CCN(C(=O)C2CC2)CC1 [Olaparib] (partner 8 µM) ?
0.166

* * *

Each entry below carries its recorded relative viability.
# System: NCI-H1666
# procedureText: relative viability (nuclei count vs DMSO), 5 days (fraction); higher = more cells survive
# experimentalConditions: first compound 8 µM
Please reply with the value in numeric form only.

{"compound": "CCCCCCCCCCCC1=C(O)C(=O)C=C(O)C1=O [Embelin] + CCNC(=O)c1noc(-c2cc(C(C)C)c(O)cc2O)c1-c1ccc(CN2CCOCC2)cc1 [Luminespib] (partner 0.01 µM)", "measValue": 1.01}
{"compound": "CCCCCCCCCCCC1=C(O)C(=O)C=C(O)C1=O [Embelin] + COc1cc2c(Oc3ccc(NC(=O)C4(C(=O)Nc5ccc(F)cc5)CC4)cc3F)ccnc2cc1OCCCN1CCOCC1 [Foretinib] (partner 0.25 µM)", "measValue": 0.941}

Which relative viability is reported with NCI-H1666 for this entry: CCCCCCCCCCCC1=C(O)C(=O)C=C(O)C1=O [Embelin] + Cc1nc(NC(=O)N2CCC[C@H]2C(N)=O)sc1-c1ccnc(C(C)(C)C(F)(F)F)c1 [Alpelisib] (partner 2 µM) ?
0.955

What do we get for CCCCCCCCCCCC1=C(O)C(=O)C=C(O)C1=O [Embelin] + CS(=O)(=O)CCNCc1ccc(-c2ccc3ncnc(Nc4ccc(OCc5cccc(F)c5)c(Cl)c4)c3c2)o1 [Lapatinib] (partner 2 µM) ?
0.616

Try the compound CCCCCCCCCCCC1=C(O)C(=O)C=C(O)C1=O [Embelin] + NC(=O)Nc1cc(-c2cccc(F)c2)sc1C(=O)N[C@H]1CCCNC1 [AZD7762] (partner 0.2 µM)
0.922

* * *

The compounds listed here are annotated with their relative viability.
# Test system: UMC-11
# procedureText: relative viability (nuclei count vs DMSO), 5 days (fraction); higher = more cells survive
# experimentalConditions: first compound 0.1265 µM

{"compound": "C[C@@H]1CN(CC(=O)Nc2ccc3c(c2)Cc2cccc(-c4cc(=O)cc(N5CCOCC5)o4)c2S3)C[C@H](C)O1 + Cc1cc(Nc2cc(N3CCN(C)CC3)nc(Sc3ccc(NC(=O)C4CC4)cc3)n2)n[nH]1 [Tozasertib] (partner 0.1 µM)", "targetUnderTest": "UMC-11", "measValue": 0.198}
{"compound": "Clc1ccc(Nc2nnc(Cc3ccncc3)c3ccccc23)cc1 [Vatalanib] + Cc1cc(Nc2cc(N3CCN(C)CC3)nc(Sc3ccc(NC(=O)C4CC4)cc3)n2)n[nH]1 [Tozasertib] (partner 0.1 µM)", "targetUnderTest": "UMC-11", "measValue": 0.206}
{"compound": "C[C@@H]1CN(CC(=O)Nc2ccc3c(c2)Cc2cccc(-c4cc(=O)cc(N5CCOCC5)o4)c2S3)C[C@H](C)O1 + CC(=O)c1c(C)c2cnc(Nc3ccc(N4CCNCC4)cn3)nc2n(C2CCCC2)c1=O [Palbociclib] (partner 0.5 µM)", "targetUnderTest": "UMC-11", "measValue": 0.332}

Find the recorded relative viability belonging to COc1cc(N2CCC(C(N)=O)CC2)ccc1Nc1nc(N)c(Cl)c(Nc2ccccc2S(=O)(=O)C(C)C)n1 [HG-5-88-01] + CCNC(=O)c1noc(-c2cc(C(C)C)c(O)cc2O)c1-c1ccc(CN2CCOCC2)cc1 [Luminespib] (partner 0.01 µM) and report it.
1.08

Also check COc1cc(N2CCC(C(N)=O)CC2)ccc1Nc1nc(N)c(Cl)c(Nc2ccccc2S(=O)(=O)C(C)C)n1 [HG-5-88-01] + CC(=O)c1c(C)c2cnc(Nc3ccc(N4CCNCC4)cn3)nc2n(C2CCCC2)c1=O [Palbociclib] (partner 0.5 µM)
0.369

Quick one: Clc1ccc(Nc2nnc(Cc3ccncc3)c3ccccc23)cc1 [Vatalanib] + C[C@@H](Oc1cc(-c2cnn(C3CCNCC3)c2)cnc1N)c1c(Cl)ccc(F)c1Cl [Crizotinib] (partner 1 µM)
0.585

Try COc1cc(N2CCC(C(N)=O)CC2)ccc1Nc1nc(N)c(Cl)c(Nc2ccccc2S(=O)(=O)C(C)C)n1 [HG-5-88-01] + O=C(c1cc(Cc2n[nH]c(=O)c3ccccc23)ccc1F)N1CCN(C(=O)C2CC2)CC1 [Olaparib] (partner 8 µM) next.
0.399

Request: COc1cc(N2CCC(C(N)=O)CC2)ccc1Nc1nc(N)c(Cl)c(Nc2ccccc2S(=O)(=O)C(C)C)n1 [HG-5-88-01] + CS(=O)(=O)N1CCN(Cc2cc3nc(-c4cccc5[nH]ncc45)nc(N4CCOCC4)c3s2)CC1 [Pictilisib] (partner 1 µM)
0.937
